These entries and their values trace back to patent US20100184701A1.

I'd appreciate it if you could supply b-arrestin2 EC50 values for the items below.
# System tested: T1, human angiotensin 2 type 1 receptor (human, UniProt P30556 1-359)
# T1 sequence (looked up): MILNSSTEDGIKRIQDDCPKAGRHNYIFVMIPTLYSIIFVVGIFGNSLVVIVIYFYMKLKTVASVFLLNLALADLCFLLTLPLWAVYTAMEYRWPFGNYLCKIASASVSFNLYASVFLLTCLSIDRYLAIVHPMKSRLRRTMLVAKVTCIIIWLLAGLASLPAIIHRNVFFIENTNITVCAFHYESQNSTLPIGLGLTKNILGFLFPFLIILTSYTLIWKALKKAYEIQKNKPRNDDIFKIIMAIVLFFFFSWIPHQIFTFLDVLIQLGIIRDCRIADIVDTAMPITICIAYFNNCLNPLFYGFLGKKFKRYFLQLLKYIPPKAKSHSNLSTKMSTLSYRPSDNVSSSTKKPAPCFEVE
# Assay info: cell-based or functional assay
Non-standard residues stand in square brackets, D forms with d. No end group written: not given here. Sar = CNCC(=O)O
Answers are plain numbers, in nM.

Give one value of b-arrestin2 EC50 per listed binder.
1. [Sar]RVYKHP-NH2 (N-terminus assumed; SMILES CNCC(=O)N[C@@H](CCCNC(=N)N)C(=O)N[C@H](C(=O)N[C@@H](Cc1ccc(O)cc1)C(=O)N[C@@H](CCCCN)C(=O)N[C@@H](Cc1c[nH]cn1)C(=O)N1CCC[C@H]1C(N)=O)C(C)C) [SEQ ID NO: 43]
2. [Sar]KVYIHP[dA]-OH (N-terminus assumed; SMILES CC[C@H](C)[C@H](NC(=O)[C@H](Cc1ccc(O)cc1)NC(=O)[C@@H](NC(=O)[C@H](CCCCN)NC(=O)CNC)C(C)C)C(=O)N[C@@H](Cc1c[nH]cn1)C(=O)N1CCC[C@H]1C(=O)N[C@H](C)C(=O)O) [SEQ ID NO: 49]

1. 2100
2. 1000
